targetOrTestSystem: human calcitonin-2 receptor (hCT2R) (Homo sapiens, UniProt P30988)
Construct: expressed in transfected cells; host or cells: Chinese hamster ovary (CHO) cells co-transfected with a 6CRE-luciferase reporter; receptor cDNA cloned from the MCF7 cell line
runDescription: HCT2R CRE-luc reporter assay
Assay type: cell-based
experimentalParameters: agonist activity; CHO-6CRE-luciferase cells co-transfected with hCT2R
Quick list: EC50 per entry.
valueType: EC50

[[record]]
substancesmiles = "CCOC(=O)c1c(CCc2ccc(F)cc2)nc2c(c1-c1ccc(C(=O)N[C@@H]3CCc4ccccc43)cc1[N+](=O)[O-])C(=O)N1CCC[C@@H]21"
resultvalue = "10 to 100 nM"

[[record]]
substancesmiles = "CCOC(=O)c1c(Cc2ccc(F)cc2)nc2c(c1-c1ncc(C(=O)N[C@@H]3CCc4ccccc43)s1)C(=O)N1CCC[C@@H]21"
resultvalue = "≤ 10 nM"

[[record]]
substancesmiles = "CCOC(=O)c1c(CCc2ccc(F)cc2)nc2c(c1-c1cc(C(=O)NCc3ccc(F)c(F)c3)cs1)C(=O)N1CCC[C@@H]21"
resultvalue = "≤ 10 nM"

[[record]]
substancesmiles = "O=C(N[C@@H]1CCc2ccccc21)c1ccc2c(c1)[nH]c(=O)c1c(CCc3ccc(F)cc3)nc3c(c12)C(=O)N1CCC[C@@H]31"
resultvalue = "≤ 10 nM"


====

targetOrTestSystem: human calcitonin-2 receptor (hCT2R) (Homo sapiens, UniProt P30988)
Construct: receptor cDNA cloned from the MCF7 cell line
runDescription: HCT2R CRE-luc reporter assay
experimentalParameters: agonist activity; CHO-6CRE-luciferase cells co-transfected with hCT2R
valueType: EC50

[[record]]
compound = "CCOC(=O)c1c(CCc2ccc(C(F)(F)F)cc2)nc2c(c1-c1ccc(NC(=O)Nc3ccccc3)cc1)C(=O)N1CCC[C@@H]21"
targetortestsystem = "human calcitonin-2 receptor (hCT2R) (Homo sapiens, UniProt P30988)"
resultvalue = "100 to 1000 nM"

[[record]]
compound = "O=C(NCc1ccco1)c1ccc(-c2c(NC(=O)C3CCCC3)c(CCc3ccc(C(F)(F)F)cc3)nc3c2C(=O)N2CCC[C@@H]32)cc1"
targetortestsystem = "human calcitonin-2 receptor (hCT2R) (Homo sapiens, UniProt P30988)"
resultvalue = "100 to 1000 nM"

[[record]]
compound = "O=C(NCc1ccco1)c1ccc(-c2c(NC(=O)C3CC3)c(CCc3ccc(C(F)(F)F)cc3)nc3c2C(=O)N2CCC[C@@H]32)cc1"
targetortestsystem = "human calcitonin-2 receptor (hCT2R) (Homo sapiens, UniProt P30988)"
resultvalue = "100 to 1000 nM"

[[record]]
compound = "CCOC(=O)c1c(CCc2ccc(OC)cc2)nc2c(c1-c1ccc(C(=O)NCc3ccccn3)cc1)C(=O)N1CCC[C@H]1C2"
targetortestsystem = "human calcitonin-2 receptor (hCT2R) (Homo sapiens, UniProt P30988)"
resultvalue = "≥ 1000 nM"

[[record]]
compound = "CCOC(=O)c1c(CCc2ccc(F)cc2)cc2c(c1-c1ccc(C(=O)NCc3ccco3)cc1)C(=O)N1CCC[C@@H]21"
targetortestsystem = "human calcitonin-2 receptor (hCT2R) (Homo sapiens, UniProt P30988)"
resultvalue = "≥ 1000 nM"

[[record]]
compound = "CCOC(=O)c1c(CCc2ccc(C(F)(F)F)cc2)nc2c(c1-c1ccc(C(=O)N[C@H](C)c3ccncc3)cc1)C(=O)N1CCC[C@@H]21"
targetortestsystem = "human calcitonin-2 receptor (hCT2R) (Homo sapiens, UniProt P30988)"
resultvalue = "10 to 100 nM"

[[record]]
compound = "CCOC(=O)c1c(CCc2ccc(C(F)(F)F)cc2)nc2c(c1-c1ccc(C(=O)NCc3ccco3)cc1)C(=O)N1CCC[C@@H]21"
targetortestsystem = "human calcitonin-2 receptor (hCT2R) (Homo sapiens, UniProt P30988)"
resultvalue = "≤ 10 nM"

[[record]]
compound = "CCOC(=O)c1c(Cc2ccc(F)cc2)nc2c(c1-c1ccc(C(=O)NCc3ccco3)nn1)C(=O)N1CCCC21 (stereo not shown)"
targetortestsystem = "human calcitonin-2 receptor (hCT2R) (Homo sapiens, UniProt P30988)"
resultvalue = "10 to 100 nM"

[[record]]
compound = "CCOC(=O)c1c(CCc2ccc(C(F)(F)F)cc2)nc2c(c1-c1ccc(C(=O)NCc3ccco3)cc1)C(=O)N1CS(=O)(=O)C[C@@H]21"
targetortestsystem = "human calcitonin-2 receptor (hCT2R) (Homo sapiens, UniProt P30988)"
resultvalue = "10 to 100 nM"

[[record]]
compound = "CCOC(=O)c1c(CCCC(C)C)nc2c(c1-c1ccc(C(=O)N[C@@H]3CCc4ccccc43)cc1)C(=O)N1CCC[C@@H]21"
targetortestsystem = "human calcitonin-2 receptor (hCT2R) (Homo sapiens, UniProt P30988)"
resultvalue = "≤ 10 nM"

[[record]]
compound = "CCOC(=O)c1c(Cc2ccc(F)cc2)nc2c(c1-c1cc(C(=O)NCCc3cccs3)cc(C(F)(F)F)c1)C(=O)N1CCC[C@@H]21"
targetortestsystem = "human calcitonin-2 receptor (hCT2R) (Homo sapiens, UniProt P30988)"
resultvalue = "≥ 1000 nM"

[[record]]
compound = "CCOC(=O)c1c(CCc2ccc(C(F)(F)F)cc2)nc2c(c1-c1ccc(S(=O)(=O)NCc3ccco3)cc1)C(=O)N1CCC[C@@H]21"
targetortestsystem = "human calcitonin-2 receptor (hCT2R) (Homo sapiens, UniProt P30988)"
resultvalue = "100 to 1000 nM"

[[record]]
compound = "CCOC(=O)c1c(C(F)(F)F)nc2c(c1-c1ccc(C(=O)NCc3cccc(F)c3)cc1)c(=O)n1n2CCC1"
targetortestsystem = "human calcitonin-2 receptor (hCT2R) (Homo sapiens, UniProt P30988)"
resultvalue = "≥ 1000 nM"


====

targetOrTestSystem: human calcitonin-2 receptor (hCT2R) (Homo sapiens)
Construct: receptor cDNA cloned from the MCF7 cell line
Sequence (P30988 25-474): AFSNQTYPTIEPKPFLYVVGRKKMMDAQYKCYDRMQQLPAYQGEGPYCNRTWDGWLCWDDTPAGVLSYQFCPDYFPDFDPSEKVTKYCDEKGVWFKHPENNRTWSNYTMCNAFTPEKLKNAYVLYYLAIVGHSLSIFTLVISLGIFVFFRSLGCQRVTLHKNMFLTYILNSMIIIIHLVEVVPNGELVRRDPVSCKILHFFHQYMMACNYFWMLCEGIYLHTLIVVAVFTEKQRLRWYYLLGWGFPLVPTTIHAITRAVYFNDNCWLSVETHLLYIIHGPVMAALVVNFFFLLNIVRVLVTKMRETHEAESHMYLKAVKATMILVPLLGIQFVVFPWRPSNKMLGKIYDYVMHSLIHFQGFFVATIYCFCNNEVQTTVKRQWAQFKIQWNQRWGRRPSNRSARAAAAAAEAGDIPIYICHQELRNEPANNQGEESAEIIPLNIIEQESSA
runDescription: HCT2R CRE-luc reporter assay
experimentalParameters: agonist activity; CHO-6CRE-luciferase cells co-transfected with hCT2R
pEC50: −log10 of the molar value.
valueType: pEC50

[[record]]
substancesmiles = "O=C(N[C@@H]1CCc2ccccc21)c1ccc2c(c1)[nH]c(=O)c1c(Cc3ccc(F)cc3)nc3c(c12)C(=O)N1CCC[C@@H]31"
valuetype = "pEC50"
resultvalue = "6.00 to 7.00"

[[record]]
substancesmiles = "CCOC(=O)c1c(CCc2ccc(OC)cc2)nc2c(c1-c1ccc(C(=O)NCc3ccco3)cc1)C(=O)N1CCC[C@H]21"
valuetype = "pEC50"
resultvalue = "7.00 to 8.00"

[[record]]
substancesmiles = "CCOC(=O)c1c(Cc2ccc(F)cc2F)nc2c(c1-c1cnc(C(=O)N[C@@H]3CCc4ccccc43)cn1)C(=O)N1CCC[C@@H]21"
valuetype = "pEC50"
resultvalue = "7.00 to 8.00"


====

Quick list: EC50 per entry.
targetOrTestSystem: human calcitonin-2 receptor (hCT2R) (Homo sapiens)
Construct: receptor cDNA cloned from the MCF7 cell line
runDescription: HCT2R CRE-luc reporter assay
experimentalParameters: agonist activity; CHO-6CRE-luciferase cells co-transfected with hCT2R
valueType: EC50

[[record]]
molecule = "CCOC(=O)c1c(CCc2ccc(C(F)(F)F)cc2)nc2c(c1-c1ccc(C(=O)NCCCn3ccnc3)cc1)C(=O)N1CCC[C@@H]21"
targetortestsystem = "human calcitonin-2 receptor (hCT2R) (Homo sapiens)"
resultvalue = "100 to 1000 nM"

[[record]]
molecule = "O=C(N[C@@H]1CCc2ccccc21)c1ccc(-c2c3c(nc4c2C(=O)N2CCC[C@@H]42)CC(c2ccc(F)cc2)CC3=O)cc1 (stereo partly shown)"
targetortestsystem = "human calcitonin-2 receptor (hCT2R) (Homo sapiens)"
resultvalue = "≥ 1000 nM"

[[record]]
molecule = "CCOC(=O)c1c(Cc2ccc(F)cc2)nc2c(c1-c1ccc(CNC(=O)c3ccccc3)s1)C(=O)N1CCC[C@@H]21"
targetortestsystem = "human calcitonin-2 receptor (hCT2R) (Homo sapiens)"
resultvalue = "100 to 1000 nM"

[[record]]
molecule = "CCOC(=O)c1c(CCc2ccc(F)cc2)nc2c(c1-c1ccc(C)cc1)C(=O)N1CCC[C@@H]21"
targetortestsystem = "human calcitonin-2 receptor (hCT2R) (Homo sapiens)"
resultvalue = "100 to 1000 nM"

[[record]]
molecule = "CCOC(=O)c1c(CCc2ccc(F)cc2)nc2c(c1-c1ccc(C(=O)NCc3ccco3)s1)c(=O)n1n2CCC1"
targetortestsystem = "human calcitonin-2 receptor (hCT2R) (Homo sapiens)"
resultvalue = "≤ 10 nM"

[[record]]
molecule = "N#Cc1c(CCc2ccc(C(F)(F)F)cc2)nc2c(c1-c1ccc(C(=O)NCc3ccco3)cc1)C(=O)N1CCC[C@@H]21"
targetortestsystem = "human calcitonin-2 receptor (hCT2R) (Homo sapiens)"
resultvalue = "100 to 1000 nM"

[[record]]
molecule = "CCOC(=O)c1c(CCc2ccc(C(F)(F)F)cc2)nc2c(c1-c1nc(C(=O)N[C@@H]3CCc4ccccc43)co1)c(=O)n1n2CCC1"
targetortestsystem = "human calcitonin-2 receptor (hCT2R) (Homo sapiens)"
resultvalue = "10 to 100 nM"

